All values here come from the supplement of paper PMC9112550.

Quick reference: shrunken log2 fold change of the listed items.
- Test system: Escherichia coli TOP10
- Protocol summary: shrunken log2 fold change of peptide-encoding DNA abundance (4.5 h post-induction vs induction); higher = less antimicrobial activity (less host growth inhibition)
- Details: time post-induction: 4.5 h; library: site-saturation at positions 5, 18, 19, 20
Simply state the number, no unit and no words.

1. RRIRRRPPRLPRPRPRPEECPRP	0.00164

Return reported shrunken log2 fold change; argument: RRIRIRPPRLPRPRPRPGWIPRP
-0.14

Lookup RRIRNRPPRLPRPRPRPSQKPRP
-0.0723

Lookup RRIRCRPPRLPRPRPRPDIGPRP
-0.293

Lookup RRIRKRPPRLPRPRPRPYVHPRP
-0.431

Lookup RRIRLRPPRLPRPRPRPCNVPRP
-0.3

Lookup RRIRIRPPRLPRPRPRPSFGPRP
-0.389

---

- Tested on: Escherichia coli TOP10
- Protocol summary: shrunken log2 fold change of peptide-encoding DNA abundance (4.5 h post-induction vs induction); higher = less antimicrobial activity (less host growth inhibition)
- Details: time post-induction: 4.5 h; library: site-saturation at positions 5, 18, 19, 20
Quick reference: shrunken log2 fold change of the listed items.
Simply state the number, no unit and no words.

1. RRIRKRPPRLPRPRPRPQKPPRP	0.00856
2. RRIRFRPPRLPRPRPRPYSEPRP	-0.297

Return reported shrunken log2 fold change; argument: RRIRERPPRLPRPRPRPNRDPRP
-0.192

Lookup RRIRSRPPRLPRPRPRPYLCPRP
-0.627

Lookup RRIRCRPPRLPRPRPRPREQPRP
0.312

---

- Test system: Escherichia coli TOP10
- Protocol summary: shrunken log2 fold change of peptide-encoding DNA abundance (4.5 h post-induction vs induction); higher = less antimicrobial activity (less host growth inhibition)
- Details: time post-induction: 4.5 h; library: site-saturation at positions 5, 18, 19, 20
Measured quantity: shrunken log2 fold change

1) RRIRVRPPRLPRPRPRPERNPRP	-0.323
2) RRIRDRPPRLPRPRPRPDYPPRP	0.00388
3) RRIRTRPPRLPRPRPRPWVLPRP	-0.0462
4) RRIRMRPPRLPRPRPRPFMAPRP	-0.236
5) RRIRPRPPRLPRPRPRPMEQPRP	0.0098
6) RRIRDRPPRLPRPRPRPPGYPRP	0.0954
7) RRIRVRPPRLPRPRPRPTIAPRP	0.335
8) RRIRIRPPRLPRPRPRPVKKPRP	-0.0235
9) RRIRVRPPRLPRPRPRPHREPRP	-0.223
10) RRIRPRPPRLPRPRPRPPDGPRP	0.067

Return reported shrunken log2 fold change; argument: RRIRSRPPRLPRPRPRPMQDPRP
0.125

Lookup RRIRQRPPRLPRPRPRPGRKPRP
0.249

Lookup RRIRIRPPRLPRPRPRPSHWPRP
-0.0355

Lookup RRIRIRPPRLPRPRPRPGSNPRP
-0.515

Lookup RRIRWRPPRLPRPRPRPLQAPRP
0.721

---

- Tested on: Escherichia coli TOP10
- Protocol summary: shrunken log2 fold change of peptide-encoding DNA abundance (4.5 h post-induction vs induction); higher = less antimicrobial activity (less host growth inhibition)
- Details: time post-induction: 4.5 h; library: site-saturation at positions 5, 18, 19, 20
Is shrunken log2 fold change at least -0.03? Then 1 (yes). If not, 0 (no).

State whether the measured shrunken log2 fold change reaches -0.03, counting equality as reaching it, for RRIRERPPRLPRPRPRPGINPRP
0 (no)

Lookup RRIRTRPPRLPRPRPRPAWSPRP
1 (yes)

---

- Tested on: Escherichia coli TOP10
- Protocol summary: shrunken log2 fold change of peptide-encoding DNA abundance (4.5 h post-induction vs induction); higher = less antimicrobial activity (less host growth inhibition)
- Details: time post-induction: 4.5 h; library: site-saturation at positions 5, 18, 19, 20
Is shrunken log2 fold change at least -0.04? Then Y. If not, N.

Completed entries (count: 6):
1) RRIRCRPPRLPRPRPRPNVGPRP	Y
2) RRIRTRPPRLPRPRPRPMNHPRP	N
3) RRIRNRPPRLPRPRPRPSITPRP	N
4) RRIRLRPPRLPRPRPRPQYLPRP	N
5) RRIRMRPPRLPRPRPRPSCIPRP	N
6) RRIRFRPPRLPRPRPRPSLMPRP	N

State whether the measured shrunken log2 fold change reaches -0.04, counting equality as reaching it, for RRIRNRPPRLPRPRPRPKNMPRP
N

Lookup RRIRRRPPRLPRPRPRPYVIPRP
Y

Lookup RRIRQRPPRLPRPRPRPKVKPRP
N

Lookup RRIRERPPRLPRPRPRPYEMPRP
N

---

- Tested on: Escherichia coli TOP10
- Protocol summary: shrunken log2 fold change of peptide-encoding DNA abundance (4.5 h post-induction vs induction); higher = less antimicrobial activity (less host growth inhibition)
- Details: time post-induction: 4.5 h; library: site-saturation at positions 5, 18, 19, 20
Measured quantity: shrunken log2 fold change

Some solved cases for reference:
1. RRIRHRPPRLPRPRPRPDKTPRP	0.0185
2. RRIRPRPPRLPRPRPRPEADPRP	0.0865
3. RRIRYRPPRLPRPRPRPRRYPRP	-0.492
4. RRIRHRPPRLPRPRPRPESYPRP	-0.012
5. RRIRARPPRLPRPRPRPLGTPRP	0.407

Return reported shrunken log2 fold change; argument: RRIRIRPPRLPRPRPRPDPFPRP
0.261

Lookup RRIRIRPPRLPRPRPRPMIIPRP
-0.295

Lookup RRIRTRPPRLPRPRPRPTCGPRP
-0.0204

Lookup RRIRDRPPRLPRPRPRPQKLPRP
-0.307

Lookup RRIRTRPPRLPRPRPRPQEKPRP
-0.0148

Lookup RRIRVRPPRLPRPRPRPMRSPRP
0.604

Lookup RRIRRRPPRLPRPRPRPIEHPRP
-0.00775

Lookup RRIRHRPPRLPRPRPRPDEIPRP
-0.137

Lookup RRIRERPPRLPRPRPRPIRQPRP
0.00357

Lookup RRIRIRPPRLPRPRPRPDQFPRP
-0.321

Lookup RRIRMRPPRLPRPRPRPIVYPRP
0.00317

Lookup RRIRKRPPRLPRPRPRPFTLPRP
0.0269

Lookup RRIRMRPPRLPRPRPRPSWGPRP
0.155

Lookup RRIRARPPRLPRPRPRPIIHPRP
-0.216

Lookup RRIRKRPPRLPRPRPRPQVCPRP
0.138

Lookup RRIRIRPPRLPRPRPRPVHPPRP
-0.0793

Lookup RRIRPRPPRLPRPRPRPCEAPRP
0.0756

Lookup RRIRMRPPRLPRPRPRPKKPPRP
0.102

Lookup RRIRWRPPRLPRPRPRPGQDPRP
0.334

Lookup RRIRMRPPRLPRPRPRPFAQPRP
0.0306

Lookup RRIRKRPPRLPRPRPRPGRDPRP
0.688

Lookup RRIRWRPPRLPRPRPRPIILPRP
-0.283

---

- Test system: Escherichia coli TOP10
- Protocol summary: shrunken log2 fold change of peptide-encoding DNA abundance (4.5 h post-induction vs induction); higher = less antimicrobial activity (less host growth inhibition)
- Details: time post-induction: 4.5 h; library: site-saturation at positions 5, 18, 19, 20
Parameter class (string): assigned from measured shrunken log2 fold change. Ranges: bin 1 = under -0.2, bin 2 = from -0.2 up to 0.03, bin 3 = 0.03 and over

Completed entries (count: 10):
1. RRIRQRPPRLPRPRPRPVSVPRP	bin 2
2. RRIRPRPPRLPRPRPRPIHAPRP	bin 2
3. RRIRKRPPRLPRPRPRPRQRPRP	bin 3
4. RRIRARPPRLPRPRPRPTVPPRP	bin 3
5. RRIRYRPPRLPRPRPRPGSPPRP	bin 2
6. RRIRERPPRLPRPRPRPYRNPRP	bin 2
7. RRIRVRPPRLPRPRPRPPFMPRP	bin 3
8. RRIRSRPPRLPRPRPRPATFPRP	bin 1
9. RRIRQRPPRLPRPRPRPMDKPRP	bin 3
10. RRIRMRPPRLPRPRPRPNHVPRP	bin 1

Pick a category. Item: RRIRNRPPRLPRPRPRPSWPPRP
bin 2

---

- System: Escherichia coli TOP10
- Protocol summary: shrunken log2 fold change of peptide-encoding DNA abundance (4.5 h post-induction vs induction); higher = less antimicrobial activity (less host growth inhibition)
- Details: time post-induction: 4.5 h; library: site-saturation at positions 5, 18, 19, 20
Is shrunken log2 fold change at least -0.1? Then T. If not, F.

1) RRIRIRPPRLPRPRPRPQDKPRP	F

State whether the measured shrunken log2 fold change reaches -0.1, counting equality as reaching it, for RRIRLRPPRLPRPRPRPTENPRP
F

---

- Test system: Escherichia coli TOP10;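 further: peptides expressed intracellularly from a pBAD plasmid library in pooled LB shake-flask culture, induced with 0.3% L-arabinose, DNA abundance read by NGS, three biological replicates, DESeq2 with apeglm shrinkage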
- Protocol summary: shrunken log2 fold change of peptide-encoding DNA abundance (4.5 h post-induction vs induction); higher = less antimicrobial activity (less host growth inhibition)
- Details: time post-induction: 4.5 h; library: site-saturation at positions 5, 18, 19, 20
Quick reference: shrunken log2 fold change of the listed items.
Simply state the number, no unit and no words.

Some solved cases for reference:
1. RRIRSRPPRLPRPRPRPRLYPRP	0.114
2. RRIRERPPRLPRPRPRPWGCPRP	-0.364
3. RRIRWRPPRLPRPRPRPLIVPRP	0.0513

Return reported shrunken log2 fold change; argument: RRIRNRPPRLPRPRPRPPACPRP
0.301

Lookup RRIRMRPPRLPRPRPRPVKGPRP
0.0743
